- Tested on: Fer (mouse);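 further: 11-residue human phosphosite peptides and single-mutation variants displayed on the E. coli surface, counted by deep sequencing, each peptide's frequency after selection divided by its frequency in the unselected input library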;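 further: frequency after pTyr selection over input frequency; kinase dosed for 20-30% of maximal phosphorylation in three min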
- protocol: phosphorylation enrichment, bacterial display (enrichment ratio); higher = better substrate or ligand; peptides without Tyr show the background
Please enter class 1 where phosphorylation enrichment is greater than or equal to 0.5, and class 0 where it is lower.

[
  {
    "seq string": "QRKRAYVEIEF [MAK16_Y282_YF]",
    "subject of test": "Fer (mouse)",
    "label": "class 0"
  },
  {
    "seq string": "KILAKYLLETS [NAMPT_Y175]",
    "subject of test": "Fer (mouse)",
    "label": "class 0"
  },
  {
    "seq string": "RRRLIYRCQVG [NR2E3_Y81]",
    "subject of test": "Fer (mouse)",
    "label": "class 1"
  },
  {
    "seq string": "VSTAVYKRFAS [BEST1_Y148_P152A]",
    "subject of test": "Fer (mouse)",
    "label": "class 0"
  },
  {
    "seq string": "RRGMPYGGCGD [TGM1_Y312_R315C]",
    "subject of test": "Fer (mouse)",
    "label": "class 0"
  }
]

Consider now this further sequence.
Hi team, for NFFEFYVDDPP [GCHFR_Y48_YF] , is the recorded phosphorylation enrichment at or above 0.5?
class 1
